procedureDetails: Aqueous solubility of the compound
assaySetup: buffer
measuredAttribute: log1/S

[[record]]
smilescode = "CNC(=O)c1ccc2nc(C(F)(F)F)n(C)c2c1"
measured = 3.93

[[record]]
smilescode = "FC(F)(F)c1nc2cc(Cl)c(Cl)cc2[nH]1"
measured = 8

[[record]]
smilescode = "CCN(CC)C(=O)COC(=O)c1ccc2c(c1)nc(C(F)(F)F)n2C"
measured = 6.94

[[record]]
smilescode = "FC(F)(F)c1nc2ccccc2[nH]1"
measured = 5.27

[[record]]
smilescode = "CCCSc1ccc2nc(NC(=O)OC)[nH]c2c1"
measured = 5.55


I. Cn1c(C(F)(F)F)nc2cc(Cl)ccc21
II. Cc1nc2ccccc2n1C
Lab log: flag the item ( I or II ) with the smaller log1/S figure. Refer to your chosen entry by its label in the reply.
II

====

procedureDetails: Aqueous solubility of the compound
assaySetup: aqueous medium, not specified further
measuredAttribute: solubility (µg/mL)

[[record]]
smilescode = "O=C(O)c1ccc2nc(C(F)(F)F)[nH]c2c1"
quantityunit = "µg/mL"
measured = 0.189


a. Cn1c(C(F)(F)F)nc2cc(Cl)ccc21
b. Cc1nc2cc(Cl)c(Cl)cc2n1C
Sorting by solubility in descending order, would a or b appear first? Refer to your chosen entry by its label in the reply.
b

I. CCN(CC)C(=O)COC(=O)c1ccc2c(c1)nc(C(F)(F)F)n2C
II. CNC(=O)c1ccc2[nH]c(C(F)(F)F)nc2c1
Lab log: flag the item ( I or II ) with the smaller solubility figure. Refer to your chosen entry by its label in the reply.
I

a. Cn1c(C(F)(F)F)nc2ccc(Cl)cc21
b. COC(=O)c1ccc2[nH]c(C(F)(F)F)nc2c1
c. Cn1c(S)nc2cc(Cl)ccc21
d. CSc1nc2cc(Cl)ccc2n1C
Sort the 4 molecules by solubility; largest first, smallest last. Enter labels, ranked according to the request.
c, b, a, d
(c: 3.79 µg/mL, b: 0.555 µg/mL, a: 0.033 µg/mL, d: 0.0172 µg/mL)

====

procedureDetails: Lipophilicity, logkw of the compound by RP-HPLC analysis
measuredAttribute: logKw

Previously resolved entries follow.
[[record]]
smilescode = "CNC(=O)c1ccc2[nH]c(C(F)(F)F)nc2c1"
measured = 1.21

[[record]]
smilescode = "FC(F)(F)c1nc2ccccc2[nH]1"
measured = 1.8

[[record]]
smilescode = "Cn1c(N)nc2cc(Cl)ccc21"
measured = 3.19

[[record]]
smilescode = "COC(=O)Nc1nc2ccc(Sc3ccccc3)cc2[nH]1"
measured = 2.44

[[record]]
smilescode = "CCCSc1ccc2nc(NC(=O)OC)[nH]c2c1"
measured = 1.95


P. Cn1c(C(F)(F)F)nc2ccc(Cl)cc21
Q. Cn1c(C(F)(F)F)nc2cc(C(=O)O)ccc21
R. Cc1nc2ccccc2n1C
Please produce an ascending ranking of these compounds based on logKw. Enter labels, ranked according to the request.
R, Q, P
(R: 0.42, Q: 1.47, P: 2.37)

====

Tested on: Caco-2
procedureDetails: Efflux ratio of permeability from apical to basolateral side over basolateral to apical side in human Caco2 cells at 100 uM up to 90 mins
assaySetup: caco-2, 1.5 h
measuredAttribute: Ratio

[[record]]
smilescode = "CCN(CC)C(=O)COC(=O)c1ccc2nc(C(F)(F)F)n(C)c2c1"
measured = 0.84


a. Cn1c(C(F)(F)F)nc2ccc(C(=O)O)cc21
b. Cn1c(S)nc2ccccc21
c. CCN(CC)C(=O)COC(=O)c1ccc2c(c1)nc(C(F)(F)F)n2C
Sort the 3 molecules by Ratio; largest first, smallest last. Enter labels, ranked according to the request.
b, a, c
(b: 1.78, a: 0.91, c: 0.5)
